ASSAY_TARGET: human DLL4, full length, on cells (human, UniProt Q9NR61 27-685)
Sequence (Q9NR61 27-685 limits assumed): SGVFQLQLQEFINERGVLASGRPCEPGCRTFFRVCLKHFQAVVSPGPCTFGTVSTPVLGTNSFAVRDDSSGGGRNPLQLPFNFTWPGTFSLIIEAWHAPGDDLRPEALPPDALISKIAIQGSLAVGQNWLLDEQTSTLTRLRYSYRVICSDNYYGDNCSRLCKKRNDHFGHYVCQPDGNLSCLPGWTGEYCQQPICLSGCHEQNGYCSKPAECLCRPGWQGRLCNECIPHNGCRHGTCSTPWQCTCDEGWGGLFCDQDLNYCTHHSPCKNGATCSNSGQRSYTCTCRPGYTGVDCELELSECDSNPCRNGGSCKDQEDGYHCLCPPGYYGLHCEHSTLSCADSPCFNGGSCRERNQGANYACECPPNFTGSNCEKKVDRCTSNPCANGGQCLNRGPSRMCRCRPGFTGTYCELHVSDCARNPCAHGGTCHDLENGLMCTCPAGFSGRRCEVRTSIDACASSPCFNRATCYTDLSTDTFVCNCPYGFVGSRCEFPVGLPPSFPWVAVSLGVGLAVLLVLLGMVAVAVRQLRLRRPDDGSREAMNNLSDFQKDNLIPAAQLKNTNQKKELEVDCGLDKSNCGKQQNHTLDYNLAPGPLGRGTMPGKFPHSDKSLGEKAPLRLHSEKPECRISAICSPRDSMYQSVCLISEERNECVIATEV
RUN_DESCRIPTION: cell-based or functional assay
EXPERIMENTAL_ENDPOINT: Notch activation Inhibition (IC50, nM), huDLL4 cell/Notch reporter cells

# BINDER, ASSAY_RESULT
records = [
    ("14G1 rat anti-DLL4 monoclonal antibody (antibody, rat IgG2a, V domains shown, rat IgG2a/K hybridoma mAb; also called MC13-14G1.1B4) VH: EVQLQQSGAELAKPGSSVKISCKASGYTFTNYDISWIKQTNGQGLEYLGYINTGSGGIYSNEKFKGKATLTVDKSSNTAFMQLSSLTPEDTAVYYCVREGNNFDHWGQGVKVTVSS VL: DTVMTQSPASMSTSVGERVTVNCKASQSVGTIVAWFQQKPGQSPKRLIYLATYRHTGVPDRFIGSGFGRDFTLTISNVEAEDLAVYYCLQYGSRPFTFGAGTKLEIKR", 6.1),
]
